Test system: specific serum IgG antibodies in sera from patients diagnosed with a H. pylori infection
Test: Quantitative Western-blot analysis (integrated optical density) of patient sera on H. pylori whole cell lysate antigens
Format: binding, human
Details: average of all strains (FIG. 4); 3 months after eradication treatment
Assay Readout: reduction of average titer (%)
Please respond with the number in % and leave the unit unwritten.

Take a look at these entries with their results.
HP0596 a hypothetical protein (protein, 23 kd H. pylori antigen band in whole cell lysate, identified as HP0596) MLEKSFLKSKQLFLCGLGVLMLQACTCPNTSQRNSFLQDVPYWMLQNRSEYITQGVDSSHIVDGKKTEEIEKIATKRATIRVAQNIVHKLKEAYLSKTNRIKQKITNEMFIQMTQPIYDSLMNVDRLGIYINPNNEEVFALVRARGFDKDALSEGLHKMSLDNQAVSILVAKVEEIFKDSVNYGDVKVPIAM ... 63.71
HpaA-neuraminyl-lactose-hemagglutinin precursor (protein, 32 kd H. pylori antigen band in whole cell lysate, identified as HpaA) MKKGSLAIVLGSLLASGAFYTALADGMPAKQQHNNTGESVELHFHYPIKGKQEPKNSHLVVLIEPKIEINKVIPESYQKEFEKSLFLQLSSFLERKGYSVSQFKDASEIPQDIKEKALLVLRMDGNVAILEDIVEESDALSEEKVIDMSSGYLNLNFVEPKSEDIIHSFGIDVSKIKAVIERVELRRTNSGGFVPKTFVHRIKETDHDQAIRKIMNQAYHKVMVHITKELSKKHMEHYEKVSSEMKKRK ... 61.5
Omp18-peptido-glycan associated lipoprotein precursor (protein, 30 kd H. pylori antigen band in whole cell lysate, identified as Omp18) MKRSSVFSFLVAFLLVAGCSHKMDNKTVAGDVSAKTVQTAPVTTEPAPEKEEPKQEPAPVVEEKPAVESGTIIASIYFDFDKYEIKESDQETLDEIVQKAKENHMQVLLEGNTDEFGSSEYNQALGVKRTLSVKNALVIKGVEKDMIKTISFGETKPKCAQKTRECYKENRRVDVKLMK ... 50.27

Now for another entry.
# lookup: reduction of average titer of RPL7/L12 50S ribosomal protein L7/L12 (protein, 15 kd H. pylori antigen band in whole cell lysate, identified as RPL7/L12) MNISVNPYLMAVVFVVFVLLLWAMNVWVYRPLLAFMDNRQAEIKDSLAKIKTDNAQSVEIGHQIEALLKEAAEKRREIIAEAIQKATESYDAVIKQKENELNQEFEAFAKQLQNEKQALKEQLQAQMPVFEDELNKRVAMGLGS
68.39

// data source = patent US20030166027A1
